These entries and their values trace back to ChEMBL document CHEMBL3991601.

- measurement.target: Receptor-interacting serine/threonine-protein kinase 3 (Homo sapiens, UniProt Q9Y572); note: in the data inactive means no Kd found up to 30 µM
- Sequence (Q9Y572 whole entry): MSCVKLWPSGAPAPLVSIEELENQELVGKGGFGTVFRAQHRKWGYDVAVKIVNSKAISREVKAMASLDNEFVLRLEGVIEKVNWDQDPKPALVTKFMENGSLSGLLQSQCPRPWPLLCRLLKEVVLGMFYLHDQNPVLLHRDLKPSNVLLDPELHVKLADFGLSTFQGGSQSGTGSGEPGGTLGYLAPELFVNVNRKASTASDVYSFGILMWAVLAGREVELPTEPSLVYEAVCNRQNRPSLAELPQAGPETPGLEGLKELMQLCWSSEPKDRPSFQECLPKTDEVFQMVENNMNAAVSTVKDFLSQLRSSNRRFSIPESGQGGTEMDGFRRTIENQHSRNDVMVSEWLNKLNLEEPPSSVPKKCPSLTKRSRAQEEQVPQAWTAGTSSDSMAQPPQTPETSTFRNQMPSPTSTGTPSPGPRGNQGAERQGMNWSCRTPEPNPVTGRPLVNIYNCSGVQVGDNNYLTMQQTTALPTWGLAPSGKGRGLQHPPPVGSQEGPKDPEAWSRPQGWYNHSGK
Calls of active or inactive are those of the source.
Choose one outcome from this list and give only that: 1 for active, -1 for inactive

Check out these entries, answers already filled in.
[
  {
    "compound": "CCOc1ccn(-c2ccc(F)cc2)c(=O)c1C(=O)Nc1ccc(Oc2ccnc(N)c2Cl)c(F)c1",
    "cat": -1
  },
  {
    "compound": "Cn1c(=O)n(-c2ccc(C(C)(C)C#N)cc2)c2c3cc(-c4cnc5ccccc5c4)ccc3ncc21",
    "cat": -1
  },
  {
    "compound": "COc1cc(Nc2ncc(F)c(Nc3ccc4c(n3)N(COP(=O)(O)O)C(=O)C(C)(C)O4)n2)cc(OC)c1OC",
    "cat": -1
  },
  {
    "compound": "COc1cc2ncnc(Nc3ccc(O)cc3)c2cc1OC",
    "cat": -1
  },
  {
    "compound": "CCN(CCCOc1ccc2c(Nc3cc(CC(=O)Nc4cccc(F)c4)n[nH]3)ncnc2c1)CCOP(=O)(O)O",
    "cat": -1
  },
  {
    "compound": "C[C@@H]1COC(Nc2ccc3ncnc(Nc4ccc(OCc5nccs5)c(Cl)c4)c3c2)=N1",
    "cat": 1
  }
]

[in] Called result for COc1cc2ncnc3c2cc1OCCCCCN(C)Cc1ccc(Br)cc1N3
[out] -1

[in] Called result for COc1cc2nccc(Oc3ccc(NC(=O)C4(C(=O)Nc5ccc(F)cc5)CC4)cc3)c2cc1OC [CABOZANTINIB]
[out] 1

[in] Called result for C[C@]1(O)C[C@@H](c2nc(-c3ccc4ccc(-c5ccccc5)nc4c3)c3c(N)nccn32)C1
[out] 1

[in] Called result for COCCN1CCN(Cc2ccc(-c3n[nH]c4c3C(=O)c3c(NC(=O)NN5CCOCC5)cccc3-4)cc2)CC1
[out] -1

[in] Called result for C#Cc1cccc(Nc2ncnc3cc4c(cc23)OCCOCCOCCO4)c1
[out] -1

[in] Called result for CN(c1ncccc1CNc1nc(Nc2ccc3c(c2)CC(=O)N3)ncc1C(F)(F)F)S(C)(=O)=O
[out] -1

[in] Called result for COc1cccc2cc(-c3nc([C@H]4CC[C@H](C(=O)O)CC4)n4ncnc(N)c34)[nH]c12
[out] -1

[in] Called result for O=S(=O)(c1cccc2c(O)nccc12)N1CCCNCC1 [HYDROXYFASUDIL]
[out] -1

[in] Called result for COc1cc2c(N3CCN(C(=O)Nc4ccc(OC(C)C)cc4)CC3)ncnc2cc1OCCCN1CCCCC1
[out] -1

[in] Called result for COc1cc2ncnc(Nc3ccc(F)c(Cl)c3)c2cc1NC(=O)/C=C/CN1CCCCC1 [DACOMITINIB ANHYDROUS]
[out] 1

[in] Called result for C=CC(=O)Nc1cccc(Nc2nc(Nc3ccc(N4CCN(C(C)=O)CC4)cc3OC)ncc2C(F)(F)F)c1
[out] -1

[in] Called result for O=C(NC[C@H](O)CO)c1ccncc1Nc1ccc(I)cc1F
[out] -1

[in] Called result for FC(F)(F)c1ccc(CNc2ccc(Cc3c[nH]c4ncc(Cl)cc34)cn2)cn1
[out] -1

[in] Called result for CC(C)(O)CC(=O)NCCn1ccc2ncnc(Nc3ccc(Oc4cccc(C(F)(F)F)c4)c(Cl)c3)c21
[out] -1

[in] Called result for CNC(=O)c1cc(COc2nnc(Nc3ccc(Cl)cc3)c3ccoc23)ccn1
[out] -1

[in] Called result for CNC(=O)c1ccc(Nc2ncc(C(F)(F)F)c(NCc3nccnc3N(C)S(C)(=O)=O)n2)cc1
[out] -1

[in] Called result for NC(=O)c1ccc(N(C(N)=O)c2c(F)cccc2F)nc1-c1ccc(F)cc1F
[out] -1

[in] Called result for Cc1ccc(C(=O)Nc2ccc(Oc3cc4cnn(C)c4cc3-c3cn[nH]c3)c(F)c2)c(=O)n1-c1ccc(F)cc1
[out] -1

[in] Called result for COc1ccc(-c2ccc3ncc4c(c3c2)n(-c2ccc(N3CCNCC3)c(C(F)(F)F)c2)c(=O)n4C)cn1 [BGT-226 FREE BASE]
[out] -1

[in] Called result for Cc1c(NC(=O)OC[C@@H]2COCCN2)cn2ncnc(Nc3ccc4c(cnn4Cc4cccc(F)c4)c3)c12
[out] -1

[in] Called result for C[C@@]1(C(=O)Nc2ccc(F)nc2)CCCN1c1nc(Nc2cc(C3CC3)n[nH]2)c2cccn2n1
[out] -1

[in] Called result for COc1ccc2c(OCc3nnc4ccc(-c5ccccc5)nn34)ccnc2c1
[out] -1

[in] Called result for Cn1cnc2c(F)c(Nc3ccc(Br)cc3Cl)c(C(=O)NOCCO)cc21
[out] -1

[in] Called result for COc1cccc(Nc2ncnn3ccc(CN4CC[C@@H](N)[C@H](O)C4)c23)c1
[out] -1

[in] Called result for CC(C)CC(=O)Nc1[nH]nc2c1CN(C(=O)C1CCN(C)CC1)C2(C)C
[out] -1

[in] Called result for Cc1cc(-c2cc(OC(=O)c3ccccc3)ccc2Cl)cc2nnc(Nc3ccc(OCCN4CCCC4)cc3)nc12
[out] -1

* * *

List of Kd tested on dCTP pyrophosphatase 1 (Homo sapiens, UniProt Q9H773). Note: in the data inactive means no Kd found up to 30 µM.
Sequence (Q9H773 whole entry): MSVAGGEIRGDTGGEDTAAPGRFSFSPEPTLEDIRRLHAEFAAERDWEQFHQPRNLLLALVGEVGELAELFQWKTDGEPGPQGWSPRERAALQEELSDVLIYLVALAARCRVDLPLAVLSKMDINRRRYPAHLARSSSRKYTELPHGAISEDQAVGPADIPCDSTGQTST
Active and inactive are the calls of the source.

[
  {
    "smiles": "CCc1cc2c(cc1N1CCC(N3CCOCC3)CC1)C(C)(C)c1[nH]c3cc(C#N)ccc3c1C2=O",
    "Kd": "> 30 µM (inactive)"
  },
  {
    "smiles": "Cc1cc(-c2cc(OC(=O)c3ccccc3)ccc2Cl)cc2nnc(Nc3ccc(OCCN4CCCC4)cc3)nc12",
    "Kd": "> 30 µM (inactive)"
  },
  {
    "smiles": "CNC(=O)c1cc(COc2nnc(Nc3ccc(Cl)cc3)c3ccoc23)ccn1",
    "Kd": "> 30 µM (inactive)"
  }
]

Now let's try a different one.
According to the records, this molecule COc1cc(Nc2ncc(F)c(Nc3ccc4c(n3)N(COP(=O)(O)O)C(=O)C(C)(C)O4)n2)cc(OC)c1OC displays Kd of > 30 µM (inactive)

* * *

- measurement.target: Protein kinase C beta type (Homo sapiens, UniProt P05771); note: in the data inactive means no Kd found up to 30 µM
- Sequence (P05771 whole entry): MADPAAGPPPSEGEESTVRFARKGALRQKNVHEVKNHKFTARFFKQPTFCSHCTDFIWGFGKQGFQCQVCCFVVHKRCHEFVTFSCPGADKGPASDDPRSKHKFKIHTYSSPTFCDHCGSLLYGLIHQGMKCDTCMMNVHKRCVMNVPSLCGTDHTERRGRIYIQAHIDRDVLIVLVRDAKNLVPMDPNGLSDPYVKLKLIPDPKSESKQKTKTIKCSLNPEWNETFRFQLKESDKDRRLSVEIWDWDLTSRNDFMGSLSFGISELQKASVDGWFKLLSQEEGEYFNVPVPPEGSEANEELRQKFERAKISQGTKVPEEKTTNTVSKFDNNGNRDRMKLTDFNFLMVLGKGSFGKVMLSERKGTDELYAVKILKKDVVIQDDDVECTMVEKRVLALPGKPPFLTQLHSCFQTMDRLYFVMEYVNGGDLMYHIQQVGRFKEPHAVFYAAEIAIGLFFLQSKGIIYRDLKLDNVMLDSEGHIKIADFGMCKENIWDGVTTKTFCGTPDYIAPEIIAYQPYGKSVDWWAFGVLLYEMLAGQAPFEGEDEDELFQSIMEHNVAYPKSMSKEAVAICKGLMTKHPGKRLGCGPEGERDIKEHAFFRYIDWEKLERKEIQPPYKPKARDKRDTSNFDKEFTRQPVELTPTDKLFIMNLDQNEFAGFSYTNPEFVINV
Activity calls are given as the source filed them.
Choose one outcome from this list and give only that: True (active), False (inactive)

[
  {
    "compound": "C=CCN(/C=C1/C(=O)O[C@H](COC)[C@@]2(C)C1=C(O)C(=O)C1=C2[C@H](OC(C)=O)C[C@]2(C)C(=O)CC[C@@H]12)CC=C",
    "measurement.target": "Protein kinase C beta type (Homo sapiens, UniProt P05771)",
    "cat": "False"
  },
  {
    "compound": "Cc1cc(Nc2nc(N[C@@H](C)c3ncc(F)cn3)ncc2Cl)n[nH]1",
    "measurement.target": "Protein kinase C beta type (Homo sapiens, UniProt P05771)",
    "cat": "False"
  },
  {
    "compound": "Cc1c(Cn2c(C)nc3c(C(=O)O)cc(N4CCOCC4)cc32)cccc1C(F)(F)F",
    "measurement.target": "Protein kinase C beta type (Homo sapiens, UniProt P05771)",
    "cat": "False"
  },
  {
    "compound": "CC[C@@](C)(Nc1ccnc(-c2c[nH]c3ncccc23)n1)C(=O)NCC(F)(F)F",
    "measurement.target": "Protein kinase C beta type (Homo sapiens, UniProt P05771)",
    "cat": "True"
  },
  {
    "compound": "C[C@]1(O)C[C@@H](c2nc(-c3ccc4ccc(-c5ccccc5)nc4c3)c3c(N)nccn32)C1",
    "measurement.target": "Protein kinase C beta type (Homo sapiens, UniProt P05771)",
    "cat": "False"
  }
]

[in] Called result for COc1cc2ncnc(Nc3ccc(F)c(Cl)c3)c2cc1NC(=O)/C=C/CN1CCCCC1 [DACOMITINIB ANHYDROUS]
[out] False

[in] Called result for COc1cc2c(N3CCN(C(=O)Nc4ccc(OC(C)C)cc4)CC3)ncnc2cc1OCCCN1CCCCC1
[out] False

* * *

List of Kd tested on Very long-chain specific acyl-CoA dehydrogenase, mitochondrial (Homo sapiens). Note: in the data inactive means no Kd found up to 30 µM.
Sequence (P49748 whole entry): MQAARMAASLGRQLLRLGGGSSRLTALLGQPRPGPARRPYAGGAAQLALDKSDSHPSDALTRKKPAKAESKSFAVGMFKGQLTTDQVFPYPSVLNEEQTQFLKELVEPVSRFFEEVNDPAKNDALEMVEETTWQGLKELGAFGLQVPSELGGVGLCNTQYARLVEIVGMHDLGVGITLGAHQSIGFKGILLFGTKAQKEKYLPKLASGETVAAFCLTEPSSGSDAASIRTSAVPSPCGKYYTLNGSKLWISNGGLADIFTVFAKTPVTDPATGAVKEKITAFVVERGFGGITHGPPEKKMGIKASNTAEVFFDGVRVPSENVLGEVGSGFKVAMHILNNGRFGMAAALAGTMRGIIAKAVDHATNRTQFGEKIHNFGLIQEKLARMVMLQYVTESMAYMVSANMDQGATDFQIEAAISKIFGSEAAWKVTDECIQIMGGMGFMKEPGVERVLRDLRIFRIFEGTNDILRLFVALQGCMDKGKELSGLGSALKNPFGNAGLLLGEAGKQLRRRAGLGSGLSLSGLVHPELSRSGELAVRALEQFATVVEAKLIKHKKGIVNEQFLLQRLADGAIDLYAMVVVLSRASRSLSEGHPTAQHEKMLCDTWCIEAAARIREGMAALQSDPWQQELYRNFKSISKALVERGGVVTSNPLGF
The source made the active and inactive calls.

[
  {
    "smiles": "CN(c1ncccc1CNc1nc(Nc2ccc3c(c2)CC(=O)N3)ncc1C(F)(F)F)S(C)(=O)=O",
    "measurement.target": "Very long-chain specific acyl-CoA dehydrogenase, mitochondrial (Homo sapiens)",
    "Kd": "> 30 µM (inactive)"
  }
]

Give one value of Kd per listed molecule.
1. C[C@@H]1COC(Nc2ccc3ncnc(Nc4ccc(OCc5nccs5)c(Cl)c4)c3c2)=N1
2. Cn1c(=O)n(-c2ccc(C(C)(C)C#N)cc2)c2c3cc(-c4cnc5ccccc5c4)ccc3ncc21
3. Cc1cc(Nc2nc(N[C@@H](C)c3ncc(F)cn3)ncc2Cl)n[nH]1
4. O=C(NC[C@H](O)CO)c1ccncc1Nc1ccc(I)cc1F
5. O=S(=O)(c1cccc2cnccc12)N1CCCNCC1

[out]
1. > 30 µM (inactive)
2. > 30 µM (inactive)
3. > 30 µM (inactive)
4. > 30 µM (inactive)
5. > 30 µM (inactive)

Give one value of Kd per listed molecule.
1. COc1cc2c(N3CCN(C(=O)Nc4ccc(OC(C)C)cc4)CC3)ncnc2cc1OCCCN1CCCCC1
2. COCCN1CCN(Cc2ccc(-c3n[nH]c4c3C(=O)c3c(NC(=O)NN5CCOCC5)cccc3-4)cc2)CC1

[out]
1. > 30 µM (inactive)
2. > 30 µM (inactive)
